# Test system: NCI-H23 lung
# method.summary: NCI tumour cell line growth inhibition, 48 h; in the data active = GI50 below about 0.43 µM; inactive = the rest
Outcome codes: 1 for active, -1 for inactive

>  <molecule>
O=C1c2ccccc2-c2c1c1ccccc1c(=O)n2CCCNCCCCNCCCN1C(=O)c2ccccc2C2C(=O)c3ccccc3C21 (stereo unspecified)

>  <system.under.test>
NCI-H23 lung

>  <label>
1

$$$$
>  <molecule>
COc1ccc(Nc2cc(C)nc(NCCCNc3ccnc4cc(Cl)ccc34)n2)cc1

>  <system.under.test>
NCI-H23 lung

>  <label>
-1

$$$$
>  <molecule>
O=C(Nc1ccccc1)c1cc(S(=O)(=O)Nc2nc3ccccc3o2)c(SCc2ccccc2)cc1Cl

>  <system.under.test>
NCI-H23 lung

>  <label>
-1

$$$$
>  <molecule>
Clc1cc(Cl)cc(N2N=C(c3cccc(Nc4ccncc4)c3)CC2c2ccc3c(c2)OCO3)c1 (stereo unspecified)

>  <system.under.test>
NCI-H23 lung

>  <label>
-1

$$$$
>  <molecule>
CCCCCCCCC(=O)OCC(CS[As](C)C)OC(=O)CCCCCCCC (stereo unspecified)

>  <system.under.test>
NCI-H23 lung

>  <label>
-1

$$$$
>  <molecule>
CC1(C)[C@@H](OC(=O)CCC(=O)O)CC[C@]2(C)[C@H]3C(=O)C=C4[C@@H]5C[C@@](C)(C(=O)O)CC[C@]5(C)CC[C@@]4(C)[C@]3(C)CC[C@@H]12

>  <system.under.test>
NCI-H23 lung

>  <label>
-1

$$$$
>  <molecule>
NC(N)=N/N=C/c1ccc(-c2ccc(-c3cc(Cl)cc(Cl)c3)s2)cc1

>  <system.under.test>
NCI-H23 lung

>  <label>
-1

$$$$
>  <molecule>
CN(C)c1ccc(/C=C/C2=[N+](C)c3ccccc3C2(C)C)cc1

>  <system.under.test>
NCI-H23 lung

>  <label>
1

$$$$
>  <molecule>
Oc1cc2ccccc2c(-c2c(O)c(O)cc3ccccc23)c1O

>  <system.under.test>
NCI-H23 lung

>  <label>
-1

$$$$
>  <molecule>
COc1cc([N+](=O)[O-])c(OC)cc1-c1nc2sc(Cl)cn2c1/C=N/NC1=NCCN1

>  <system.under.test>
NCI-H23 lung

>  <label>
-1

$$$$
>  <molecule>
CC(=O)OC1CC2C3CCC4C[C@@H](NC(=O)C=C(C)C)CC[C@]4(C)C3CC[C@]2(C)[C@H]1C(C)N(C)C (stereo partly specified)

>  <system.under.test>
NCI-H23 lung

>  <label>
-1

$$$$
>  <molecule>
Cn1c(NCC(O)CN2CCCC2)cc(=O)n(C)c1=O (stereo unspecified)

>  <system.under.test>
NCI-H23 lung

>  <label>
-1

$$$$
>  <molecule>
COc1cc(C(=O)Nc2cc(OC)c3ccn(C)c3c2)cc2c1C[C@]1(C)CC[C@@H](O)C(C)(C)[C@H]1O2

>  <system.under.test>
NCI-H23 lung

>  <label>
-1

$$$$
>  <molecule>
Clc1ccc(-c2cc(-c3ccccc3)nc(NCCNc3ccnc4cc(Cl)ccc34)n2)cc1

>  <system.under.test>
NCI-H23 lung

>  <label>
-1

$$$$
>  <molecule>
COc1cc([C@@H]2C[C@H]2c2cc(SC)n[nH]2)cc(OC)c1OC

>  <system.under.test>
NCI-H23 lung

>  <label>
-1

$$$$
>  <molecule>
CCN(CC)C1CCC(Nc2c(C(C)=O)cnc3ccc(-c4ccc(O)c(Cl)c4)cc23)CC1 (stereo unspecified)

>  <system.under.test>
NCI-H23 lung

>  <label>
-1

$$$$
